Consider the following compounds and their measured IC50 readings.
molecular target: RBP4 (Homo sapiens (Human), UniProt P02753); assay: RBP4 SPA binding assay (displacement of 3H-retinol); settings: read-out: RBP4 SPA IC50
All answers are understood in nM, so give the number only.

Qu. Provide measured IC50 value, entry: Cc1cc(C(=O)O)nc(N2CCC(COc3ccccc3C(F)(F)F)C2)n1 (racemic) [Compound (±)-44]
Ans. 80

Qu. Provide measured IC50 value, entry: Cc1cc(C(=O)O)nc(N2CC[C@@H](COc3ccccc3C(F)(F)F)C2)n1 [Compound (R)-50]
Ans. 65

====

experiment: In vivo PK in CD-1 mice (IV and PO); parameters: species or system mouse; conditions: mouse, whole blood; PO 5 mg/kg, male CD-1 mice
attribute.measured: half-life (h)
All answers are understood in h, so give the number only.

Qu. Provide measured half-life value, entry: Cc1cc(C(=O)O)nc(N2CCC(COc3ccccc3C(F)(F)F)C2)n1 (racemic) [Compound (±)-44]
Ans. 9.9
